Where these numbers come from: the nanobody polyreactivity screen of Harvey et al. (2022)

# Experimental Protocol: yeast display, Sf9 membrane polyspecificity reagent, FACS + sequencing; frameworks hold sequencing errors
Result Type: polyreactivity (PSR sort gate)

[[record]]
macromolecule_sequence = "QVQLEDSGGGVVQAGGSLRLSCAASGSIYYPYAMGWNRQAPGKERELVARITSGGSTHYADSVKGRFTISRDNAKNTVYLQMNSLKPEETAVYYCNADYWFVESDYWGKGTQVTVSS"
result = "low polyreactivity"

[[record]]
macromolecule_sequence = "QVQLVESGGGLVQAGASLRLSCAASGSIFAGYAMGWYRQAPWKERELVAAISWSGGGTYYADSVKGRFTISRDNEKNTVYLQMNSLKPEDTAVYYCNAYGYRHRGNGYWGQGTQVTVSS"
result = "high polyreactivity"

[[record]]
macromolecule_sequence = "QVQLVESGGGLVQAVGSLRLSCAPSGRTLNNYTMGWNRPAPGKERELVAAIRWSTGSTYYADSVKGRFTISRDNSKNTVYLQMNSLKPEDTAVYYCNAYRYQWAQSTEYDYWGQGTQVTVSS"
result = "high polyreactivity"

[[record]]
macromolecule_sequence = "QVRLVESCGGLVQAGGSLRLSCAASGITFQYNAMGWYRQAPGKERELVATIRRGGITKYADSVKGRFTISRDNAKNTVYLQMNSLKPEDTAVYYCNADWVWRYSSDFDYWGQGTQVTVSS"
result = "low polyreactivity"

[[record]]
macromolecule_sequence = "QVQLVESGGGLVQAGGSLRLICAASGFIFGGYAMGWYRQAHGKERELVAAISSSGGSTYYADSVKGRFTISRDNAKNTVYLQMNSLKPEDTAVYYCAADRYYYRGRYYGYTREFDYWGQGTQVTVSS"
result = "high polyreactivity"

[[record]]
macromolecule_sequence = "QVQLVESGGVLVQAGGSLRLSCAASGSTFYTYAMGWYRQAPGKERELVAAITRRGGRTYYADSVKGRFTISRDIAKNTVYLQMNSLKPEDTSVYYCAAYPWATCYGEWGQGTQVTVSS"
result = "high polyreactivity"

[[record]]
macromolecule_sequence = "QDQLVESGGGLVQAGGSLRLSCAASGSTFFRNAMGWYRQAPGKERELVASITSGGNTKYADSVKGRFTISCDNAKNTVYVQMNSLKPEDTAVYYCAAQFYHFARYSRLYNSWGQGTQVTVSS"
result = "low polyreactivity"

[[record]]
macromolecule_sequence = "QVQLVESGGGLVQAGGSLRLSWAASGFTFPAYPMGWYRQAPGKERELVASISSSGRTNYADSEKGRFTISRDNAKNTVYLEMYSLKPEDTAVYYCAALLKQRSTSYGYWGQGSQVTVSS"
result = "high polyreactivity"

[[record]]
macromolecule_sequence = "QVQLVESGGGLVQAGGSLRLSCAASGSIFYHNTMGWYIQAPGKERELITYYADSVKGRFTISRDNAKNTVYLQMNSLKPEDTAVYYCAASPVSRTGPGDYDFWGQGTQVTVSS"
result = "low polyreactivity"

[[record]]
macromolecule_sequence = "QVQRVESGGGLVQAGGSLRLSCAASGSTFSSYAMGWYRQAPWKERELVAAISRSGGSTHYADSLKGRFTISRDNAKNTVYLQMNSLKPEDSAVYYCAADTGRYLDSNYWGQGTQVTVSS"
result = "high polyreactivity"

[[record]]
macromolecule_sequence = "QVQLVESGGGLVQAGGSLRLSCAASGFIFSSYAMGWYRQAPGKEMELVAAISWSGGRTYYADPVKGRFTISRDNAKNTVYLQLNSLKPEDTAVYYCNARYPYPYWYTSYDYWGQGTQVTVSS"
result = "high polyreactivity"

